TESTED SYSTEM: UniProtKB P35270
Sequence (P35270 whole entry): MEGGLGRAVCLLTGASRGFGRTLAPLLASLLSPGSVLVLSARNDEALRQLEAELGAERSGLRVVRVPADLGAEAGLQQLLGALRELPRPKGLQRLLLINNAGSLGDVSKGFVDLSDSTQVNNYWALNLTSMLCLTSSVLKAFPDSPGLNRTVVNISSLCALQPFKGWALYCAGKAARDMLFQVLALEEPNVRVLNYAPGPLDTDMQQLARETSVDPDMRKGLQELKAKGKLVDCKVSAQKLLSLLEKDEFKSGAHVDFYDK
TEST: Evaluation Example 2: Measurement of human SPR inhibitory activity (seven concentrations, sepiapterin absorbance at 420 nm)
Type: biochemical
CONDITION PARAMETERS: sepiapterin absorbance, Table 41, read-out: concentration at 50% inhibition of human SPR (IC50)
ASSAY METRIC: pIC50
Quick note: pIC50 means taking -log10 of the concentration in moles per liter.

CC(C)Cn1c(=O)c(C(=O)NC2CC2)c(O)n2ncc(/C=C/C(=O)N3C[C@H](C)OC[C@@H]3C)c12 [Synthesis Example 717] | 9.11

Give the measured pIC50 of CC(C)Cn1c(=O)c(C(=O)NC2CC2)c(O)n2ncc(/C=C/C(=O)N3CCN(CC4CC(F)(F)C4)CC3)c12 [Synthesis Example 714] .
8.60

Any idea what pIC50 was measured for Cc1nn2c(O)c(C(=O)NC3CC3)c(=O)n(CC(C)(C)F)c2c1/C=C/C(=O)N1CCOCC1 [Synthesis Example 747] ?
9.13

Every entry's value here was drawn from patent US20240092784A1.
